Molecular target: T1, glucagon receptor (UniProt P47871 26-477, limits assumed)
T1 construct: whole, on cells; also called GR; Glucagon
T1 sequence (P47871 26-477 limits assumed): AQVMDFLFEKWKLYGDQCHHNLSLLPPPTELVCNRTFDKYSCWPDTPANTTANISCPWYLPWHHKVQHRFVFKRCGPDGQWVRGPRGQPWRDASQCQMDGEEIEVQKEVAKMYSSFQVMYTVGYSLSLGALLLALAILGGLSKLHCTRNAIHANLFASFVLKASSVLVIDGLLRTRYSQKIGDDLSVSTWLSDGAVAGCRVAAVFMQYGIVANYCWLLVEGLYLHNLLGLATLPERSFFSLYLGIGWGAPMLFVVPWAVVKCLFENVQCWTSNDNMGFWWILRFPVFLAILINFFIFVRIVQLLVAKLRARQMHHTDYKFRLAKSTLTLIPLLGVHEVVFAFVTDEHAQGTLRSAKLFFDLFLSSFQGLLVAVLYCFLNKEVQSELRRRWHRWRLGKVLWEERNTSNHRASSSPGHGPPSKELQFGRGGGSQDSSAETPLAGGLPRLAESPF
Experiment: receptor binding, method not described
Ends that are not written are not given here.
reported.endpoint: IC50
Provide a numeric answer, followed by its unit.

According to the records, this binder SQLTFTSEYSKYLDSRRAQDFVQWLMNT-NH2 (also called Cmpd) [[desHis^1, Leu^4, Glu^9]Glucagon-NH2] displays IC50 of 0.0369 µM

According to the records, this binder SQGTTSDYSKYLDSRRAQDFVQWLMNT-NH2 (also called Cmpd) [[desHis^1, desPhe^6]Glucagon-NH2] displays IC50 of 0.13 µM

According to the records, this binder SQGTFTSEYSKYLDSRRAQDFVQFLLNT-NH2 [[desHis^1, Glu^9, Phe^25, Leu^27]Glucagon-NH2] displays IC50 of 0.0126 µM
